Values were extracted from patent US20210330611A1.

test system: fibrin- and LPS-induced microglia activation; experiment: cells; type: cell-based, rat
readoutLabel: Quadrant (FIG. 5b)

Completed entries (count: 6):
[[record]]
compound = "CN1C(C(=O)Nc2ccccn2)=C(O)c2sccc2S1(=O)=O"
system = "fibrin- and LPS-induced microglia activation"
readoutlabel = "Quadrant (FIG. 5b)"
experimentalvalue = "Q4"

[[record]]
compound = "CC(C)NCC(O)COc1ccc(CCOCC2CC2)cc1 (stereo not shown)"
system = "fibrin- and LPS-induced microglia activation"
readoutlabel = "Quadrant (FIG. 5b)"
experimentalvalue = "Q4"

[[record]]
compound = "O=C(O)CC(O)(CC(=O)O)C(=O)O"
system = "fibrin- and LPS-induced microglia activation"
readoutlabel = "Quadrant (FIG. 5b)"
experimentalvalue = "Q4"

[[record]]
compound = "NCCc1ccc(O)c(O)c1"
system = "fibrin- and LPS-induced microglia activation"
readoutlabel = "Quadrant (FIG. 5b)"
experimentalvalue = "Q4"

[[record]]
compound = "CO/N=C(\\C(=O)N[C@@H]1C(=O)N2C(C(=O)O)=C(CSc3nc(=O)c(=O)[nH]n3C)CS[C@H]12)c1csc(N)n1"
system = "fibrin- and LPS-induced microglia activation"
readoutlabel = "Quadrant (FIG. 5b)"
experimentalvalue = "Q4"

[[record]]
compound = "NS(=O)(=O)c1cc(C(=O)O)c(NCc2ccco2)cc1Cl [Furosemide]"
system = "fibrin- and LPS-induced microglia activation"
readoutlabel = "Quadrant (FIG. 5b)"
experimentalvalue = "Q4"


stdin: Look up Quadrant (FIG. 5b): CS(=O)(=O)Nc1ccc([N+](=O)[O-])cc1Oc1ccccc1 [Nimesulide]
stdout: Q4

stdin: Look up Quadrant (FIG. 5b): CN(N=O)C(=O)N[C@@H](C=O)[C@@H](O)[C@H](O)[C@H](O)CO
stdout: Q4

stdin: Look up Quadrant (FIG. 5b): O=S(=O)(O)NC1CCCCC1
stdout: Q4

stdin: Look up Quadrant (FIG. 5b): C1CNCCN1
stdout: Q4

stdin: Look up Quadrant (FIG. 5b): c1ccc(-c2ccc(C(c3ccccc3)n3ccnc3)cc2)cc1 (stereo not shown)
stdout: Q4

stdin: Look up Quadrant (FIG. 5b): CCn1cc(C(=O)O)c(=O)c2cc(F)c(N3CCNC(C)C3)c(F)c21 (stereo not shown)
stdout: Q4

stdin: Look up Quadrant (FIG. 5b): CCOC(=O)[C@H](CCc1ccccc1)N[C@@H](C)C(=O)N1[C@H](C(=O)O)C[C@H]2CCCC[C@@H]21
stdout: Q4
